- Tested on: K4 kissing-loop RNA reporter;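 note: bound reporter read as fluorescence of individual clusters on recovered sequencing chips by microscopy, with normalized cluster intensities fitted with a binding model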
- ASSAY NOTES: apparent KD of K4 kissing-loop reporter; higher = weaker reporter binding
- RUN PARAMETERS: Eterna round: R107; input ligand: tryptophan 2.4 mM
Would you please tag the item True when its apparent KD of K4 kissing-loop reporter is 100 nM or above, and False when it is below?

{"columns": ["SEQUENCE STRING", "ASSIGNED LABEL"],
 "data": [
  ["GGAUGCAUUUUGGAUACCAGUCUAGUGAUGUUAGACUGAUAAUAACGGGCAGCGUUGGCAGACCCUUGGCAGCCAAAAUACUUAA [theeternabot_exclusion_KL_Theo_B_33]", "False"]
]}

IN: Check if apparent KD of K4 kissing-loop reporter >= 100 nM (inclusive). Item: GCAGUGAUGUUGCGCGGGUACGGUAGAGUGCGAGGACCGGUACGGCCGCCACUCGUACGGAACUGGCUAAUAUAUGGAUAGGUGA [V]
OUT: True

IN: Check if apparent KD of K4 kissing-loop reporter >= 100 nM (inclusive). Item: GUAGGAUGAGGAGGAGGAUGAAUUACUGAAGGAGCGCAAAGAAAUGCAGGUAGGUCGCGGUAAAGAAGUAUAGUGAUGUUAUAUA [SSArgA.E]
OUT: True

* * *

- System: MS2 coat protein
- ASSAY NOTES: apparent KD of MS2 coat protein; designed switch direction (-1 OFF switch, 1 ON switch): 1; higher = weaker reporter binding
- RUN PARAMETERS: input ligand: FMN 200 uM
Would you please tag the item criterion met when its apparent KD of MS2 coat protein is 500 nM or above, and criterion not met when it is below?

Please review the entries below; each comes with its answer.
{"columns": ["SEQUENCE STRING", "ASSIGNED LABEL"],
 "data": [
  ["GGUGGGUUACUACCCACACAUGAGGAUCACCCAUGUAUUGGGAAGGAUAUGGUGCCUAUUUGGUACCAGAAGGUCCUGAAGGUG [SS-NG3-LRO17] (Eterna round: R96, puzzle: Same State NG 3)", "criterion met"],
  ["GGACGUCAAUAUGAAUUCCACAUGAGGAUCACCCAUGUUCAUGAGGAUAUGGAUCCUAAUUGGAUCCAGAAGGCAUGGACGUCC [Fiskers NG3ss - 38] (Eterna round: R96, puzzle: Same State NG 3)", "criterion not met"],
  ["CUUUCUCUUGCAGGAUAUCCUAGUCUUCGGUUAGGAGAAGGGCAAGGAAACUUGCUAAGCAAGUCUGUAACAGAGAUCCUUCCU [pwkr ssNG1 F9.2] (Eterna round: R96, puzzle: Same State NG 1)", "criterion not met"]
]}

We now examine a further sequence.
IN: Check if apparent KD of MS2 coat protein >= 500 nM (inclusive). Item: AACAUGAGGAUCACCCAUGUAGAAAAGUGAGGCAGCUCAGGGAAGGAUAUGGUUGACACCCUCGACCAGAAGGUCCAAAAUAAA [Argeatonra] (Eterna round: R96, puzzle: Same State NG 3)
OUT: criterion not met

* * *

- Test system: MS2 coat protein
- ASSAY NOTES: apparent KD of MS2 coat protein; higher = weaker reporter binding
- RUN PARAMETERS: Eterna round: R107; input ligand: tryptophan 2.4 mM
Class field: derived from apparent KD of MS2 coat protein; ranges bucket A (below 20 nM), bucket B (20 nM to below 70 nM), bucket C (70 nM or more)

{"columns": ["SEQUENCE STRING", "ASSIGNED LABEL"],
 "data": [
  ["ACAUUUAACUGAAGGAGCGUGAUAAACAUGAGGAUCACCCAUGUACCAAAGAUUUUCAGUUCACAGGUAGGUCGCAGACUAAUGA [JR_ExcArginiB_Sub016]", "bucket A"],
  ["UUCAUGAGGAUUGAUACCAGCCACCAACAUGAGGAACUUACAUGAGGAUCACCCAUGUGAGGCCCUUGGCAGCAAGCAUACAUGA [Exclusion Theophylline B 3]", "bucket A"],
  ["AAGAUAAGUACUGAUACCAGAGACAUGAGGAUCACCCAUGUCAAAUAAUAAUACCUCAGACUCCCUUGGCAGCAGGAUAAAUGAG [Exclusion Theophylline B GF1]", "bucket A"],
  ["CAAUAUAUAACGGCCGCCACUUACUCAUGAGGUAACAACAUGAGGAUCACCCAUGUUUGAGGAUCAAGGACCGGGUUAUAUAUUG [AstrosSSTry#19]", "bucket A"],
  ["AAAUGUGUAAAAGCUUUAACACCCUGAGAAGGAGCGCAAUAAAUUGCAGGUAGGUCGCUCAGACAUGAGGAUCACCCAUGUAACC [Atrabeor]", "bucket B"],
  ["AUCGUACCUCAUGAUACCAGCAUGUGAUCAUAACAUGAGGAUCACCCAUGUAAUCAGUGAUGCCCUUGGCAGCGUAGUCGAUACA [Same State - Theophylline B (Freestyle 8)]", "bucket C"],
  ["CAAUAUAUAUGAAGGAGCGACAUGAGGAUCACCCAUGUCUACCACGUCGAAAGACGCUCAUGUCAGGUAGGUCGCAUAUAUAUUG [Astros-Eli-mod4]", "bucket C"],
  ["UCGGGCCUUCUUUCUUGGCCCGUUACAGAAGGAGCGUCGGAAAUGACAGGUAGGUCGCUGAGAACAUGAGGAUCACCCAUGUAUU [SSAA #14]", "bucket B"]
]}

IN: # bin lookup: classify UGUACCUAGUCGGCCGCCACUCAAUAAUGAGAGGAUCACCCUCAUAAACGAGUCAAAGACUCGAUGAGGACCGGGACUAGGUACU [Palindromic MS2 2 #AlternativeMS2 #Palindrome #StaticStem] by its apparent KD of MS2 coat protein
OUT: bucket B

IN: # bin lookup: classify CCUAUGCAGUCGGCCGCCACUGAACAUGAGGAUCACCCAUGUAAUUAAAAUUAAGAUCCUGAAAUCAGGACCGGGACUGUAUAGG [Ex Tryptophan B 4] by its apparent KD of MS2 coat protein
OUT: bucket C

IN: # bin lookup: classify UCGCAUUGCUGCGAUACCAGACAUGAGGAUCACCCAUGUACCAAGAAAACGUACAUAAAUGUCCCUUGGCAGCGCAGCAAUGCGU [MAT - Exclusion Theophlline B - Mod of Eli - D26] by its apparent KD of MS2 coat protein
OUT: bucket C

IN: # bin lookup: classify UCCUUAGAUACUGAUACCAGACUACAGUAAACAUGAGGAUCACCCAUGUUUGAUCACUAAGUCCCUUGGCAGCAGGUACAUGGGA [Theo B SS r1] by its apparent KD of MS2 coat protein
OUT: bucket A

IN: # bin lookup: classify UUGGGUUUGUGAAGGAGCGGGAAAGUUUUAUAGUGAAUCCUAACAUGAGGAUCACCCAUGUCCCAGGUAGGUCGCGCGGGUUUGG [12.Q] by its apparent KD of MS2 coat protein
OUT: bucket C

IN: # bin lookup: classify GCUAUGGCUAGAAGGAGCGUGAAUUUCAGAAAACAUGAGGAUCACCCAUGUAAGGAUAUGACACAGGUAGGUCGCUAGCCAUAGC [SSAB NP+V+V2 #19] by its apparent KD of MS2 coat protein
OUT: bucket A

IN: # bin lookup: classify AACAUGAGGAUCUUCCUUAAGUGAACUGAAGGAGCGCCAGAUAUGGCAGGUAGGUCGCAGCGAACAUGAGGAUCACCCAUGUUAA [Arg A Ex t3] by its apparent KD of MS2 coat protein
OUT: bucket B

IN: # bin lookup: classify GUUAUAGACGGAAGGAGCGCGGCCACAUGAGGAUCACCCAUGUAUUGUGUUGGUAAUAGGUCGCAGGUAGGUCGCCGAUUAAUGA [Same State - Arginine B / A] by its apparent KD of MS2 coat protein
OUT: bucket B

IN: # bin lookup: classify AGCCCGGGAGCGGCCGCCACUGGAGGCUGAGCGCGACAUGAGGAUCACCCAUGUGUGCCCGGCGUUAGGACCGGGCUCGCGUGGU [#1 Same State - Tryptophan B Attempt #23 (HarryS)] by its apparent KD of MS2 coat protein
OUT: bucket B

IN: # bin lookup: classify GCACCAGGUACGGAUACCAGCUGCCAUAGUUACAUGAGGAUCACCCAUGUGAUCUAUUGUAGCCCUUGGCAGCUGUACCUGGUGC [SSThB NP+V+V2 #5 Same Structure] by its apparent KD of MS2 coat protein
OUT: bucket B

IN: # bin lookup: classify GGGACAUCGGGAAGGAGCGCAUCCAAACCACACAUGAGGAUCACCCAUGUAUAAAUAUGCAUGCAGGUAGGUCGCCCGGUGUCUC [Ersoatus] by its apparent KD of MS2 coat protein
OUT: bucket C

IN: # bin lookup: classify CAUAUAUAUAGAAGGAGCGACAUGAGGAUCACCCAUGUCUACCACGUCGAAAGACGCUCAUGUCAGGUAGGUCGCUAUAUAUAUG [Astros-Eli-mod2] by its apparent KD of MS2 coat protein
OUT: bucket C
